The origin of these recorded values is PubChem BioAssay (NCI).

# Tested on: A549/ATCC NSCLC
# test_name: NCI-60 one-dose screen, 48 h (100 = growth as untreated, 0 = no growth, -100 = all killed)
# run_conditions: 10 µM
The panel holds about 83,000 compounds, 20% with a hit somewhere; the sample as a whole holds those more often.
measurement_label: growth (%)
Give a bare numeral; the unit % is implied.

Known growth results, listed for orientation:
Param readout = growth; param system = A549/ATCC NSCLC; param query = COc1cc(/C=C/[N+](=O)[O-])cc(OC)c1OC ; response: value 54.2

# value lookup — system A549/ATCC NSCLC, readout growth, item [Cl][Hg][c]1ccc(Cl)s1 97.2

I'm curious: which growth was measured for Cc1cc(C(C)(C)c2ccc(O)c(C)c2)ccc1O tested on A549/ATCC NSCLC? 75.7

Notebook: pull reported growth for A549/ATCC NSCLC, entry O=C(O)c1cc(Cc2ccc(O)c(C(=O)O)c2)ccc1O (tested in a mixture with another compound) 79.9

API: value(readout=growth, system=A549/ATCC NSCLC) for record [O-][n+]1ccccc1S 30.4

Enter reported growth observed with A549/ATCC NSCLC for CC[C@@]1(O)C[C@H](OC2CC(N(C)C)C(O)C(C)O2)c2c(cc3c(c2O)C(=O)c2c(O)ccc(O)c2C3=O)[C@H]1C(=O)OC (stereo partly drawn) -84.8

What growth appears in the records for this molecule with A549/ATCC NSCLC? CS(=N)(=O)CCC(N)C(=O)O (stereo not drawn) 97.8

Note: attention shifts to another entry.
Hello, I am looking for reported growth with A549/ATCC NSCLC for [Cl][Sn]([c]1ccccc1)([c]1ccccc1)[c]1ccccc1 . Could you help? -93.6
